Reference for the values: ChEMBL document CHEMBL3576771

# Emax per record follows
# test.target: D(2) dopamine receptor (Homo sapiens, UniProt P14416)
# Sequence (P14416 whole entry, the tested form may be a part): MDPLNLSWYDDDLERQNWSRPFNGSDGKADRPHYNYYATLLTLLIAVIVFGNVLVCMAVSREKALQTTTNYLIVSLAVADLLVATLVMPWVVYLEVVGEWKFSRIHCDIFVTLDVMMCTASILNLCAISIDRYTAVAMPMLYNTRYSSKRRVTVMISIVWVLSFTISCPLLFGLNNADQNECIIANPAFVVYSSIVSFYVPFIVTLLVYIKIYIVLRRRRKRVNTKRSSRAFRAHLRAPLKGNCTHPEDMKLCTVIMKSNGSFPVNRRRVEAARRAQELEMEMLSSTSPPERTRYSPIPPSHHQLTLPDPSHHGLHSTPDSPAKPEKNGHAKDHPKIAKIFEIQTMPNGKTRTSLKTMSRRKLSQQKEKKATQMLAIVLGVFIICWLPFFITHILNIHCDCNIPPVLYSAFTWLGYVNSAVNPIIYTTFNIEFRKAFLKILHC
# method.notes: Agonist activity at ARMS2-PK2-tagged human dopamine D2S receptor expressed in HEK293 cells co-expressing (EA)-tagged beta arrestin fusion protein assessed as recruitment of beta-arrestin-2 after 5 hrs by chemiluminescence assay relative to quinpirole
# Assay type: cell-based
Give the quantity in %, number only.

The following molecules have reported results that may help.
C#CC1=CC[C@@H](N(CCC)CCCCNC(=O)c2ccc(OCCCc3cn(CCCC)nn3)c(OC)c2)CO1    88
C#CC1=CC[C@H](N(CCC)CCCCNC(=O)c2ccc(OCCCc3cn(CCCC)nn3)c(OC)c2)CO1    101
CCCCn1cc(CCCOc2ccc(C(=O)NCCCCN(CCC)[C@H]3CCc4c(O)cccc4C3)cc2OC)nn1    94
C#CC1=CC[C@H](N(CCC)CCCCNC(=O)c2ccc(-c3ccccc3)cc2)CC1    93
CCCCn1cc(CCCOc2ccc(C(=O)NCCCCN(CCC)[C@@H]3CCc4c(O)cccc4C3)cc2OC)nn1    56

Measured Emax of CCCCn1cc(CCCOc2ccc(C(=O)NCCCCN(CCC)CCc3ccc(O)c4[nH]c(=O)ccc34)cc2OC)nn1 : 86

Measured Emax of C#CC1=CC[C@@H](N(CCC)CCCCNC(=O)c2ccc(-c3ccccc3)cc2)CC1 : 93

----------
# pKi per record follows
# test.target: D(4) dopamine receptor (Homo sapiens, UniProt P21917)
# Sequence (P21917 whole entry): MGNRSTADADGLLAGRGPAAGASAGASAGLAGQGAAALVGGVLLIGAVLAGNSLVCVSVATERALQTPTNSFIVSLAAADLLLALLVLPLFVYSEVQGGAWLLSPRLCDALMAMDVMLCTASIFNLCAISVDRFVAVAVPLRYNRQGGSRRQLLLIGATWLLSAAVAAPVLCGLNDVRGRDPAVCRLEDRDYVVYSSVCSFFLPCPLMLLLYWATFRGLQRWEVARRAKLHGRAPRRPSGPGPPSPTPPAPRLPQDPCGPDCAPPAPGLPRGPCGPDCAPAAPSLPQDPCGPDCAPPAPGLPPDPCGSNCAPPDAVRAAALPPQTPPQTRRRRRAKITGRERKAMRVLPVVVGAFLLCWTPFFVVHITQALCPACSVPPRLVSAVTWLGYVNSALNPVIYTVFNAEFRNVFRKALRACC
# method.notes: Displacement of [3H]spiperone from human dopamine D4.4 receptor transfected in CHO cells after 1 hr by scintillation counting analysis
Please treat pKi as minus the base-10 logarithm of the molar concentration.

C#CC1=CC[C@@H](N(CCC)CCCCNC(=O)c2ccc(OCCCc3cn(CCCC)nn3)c(OC)c2)CO1    7.52

Measured pKi of CCCCn1cc(CCCOc2ccc(C(=O)NCCCCN(CCC)CCc3ccc(O)c4[nH]c(=O)ccc34)cc2OC)nn1 : 6.10

Measured pKi of C#CC1=CC[C@H](N(CCC)CCCCNC(=O)c2ccc(OCCCc3cn(CCCC)nn3)c(OC)c2)CO1 : 6.74

Measured pKi of CCCCn1cc(CCCOc2ccc(C(=O)NCCCCN(CCC)[C@H]3CCc4c(O)cccc4C3)cc2OC)nn1 : 8.03

Measured pKi of CCCCn1cc(CCCOc2ccc(C(=O)NCCCCN(CCC)[C@@H]3CCc4c(O)cccc4C3)cc2OC)nn1 : 6.54

Measured pKi of C#CC1=CC[C@@H](N(CCC)CCCCNC(=O)c2ccc(-c3ccccc3)cc2)CC1 : 7.52

Measured pKi of C#CC1=CC[C@H](N(CCC)CCCCNC(=O)c2ccc(-c3ccccc3)cc2)CC1 : 7.22

----------
# method.notes: Displacement of [3H]WAY100635 from poricne cerebral cortex 5-HT1A receptor by scintillation counting analysis
# Format: tissue-based, Sus scrofa
# log10(Ki) per record follows
Friendly reminder: values = log10 of Ki, unit nM.

The following compounds have reported results that may help.
C#CC1=CC[C@H](N(CCC)CCCCNC(=O)c2ccc(-c3ccccc3)cc2)CC1    2.04
C#CC1=CC[C@H](N(CCC)CCCCNC(=O)c2ccc(OCCCc3cn(CCCC)nn3)c(OC)c2)CO1    2.91
CCCCn1cc(CCCOc2ccc(C(=O)NCCCCN(CCC)[C@@H]3CCc4c(O)cccc4C3)cc2OC)nn1    2.30
CCCCn1cc(CCCOc2ccc(C(=O)NCCCCN(CCC)CCc3ccc(O)c4[nH]c(=O)ccc34)cc2OC)nn1    3.45

Measured log10(Ki) of CCCCn1cc(CCCOc2ccc(C(=O)NCCCCN(CCC)[C@H]3CCc4c(O)cccc4C3)cc2OC)nn1 : 1.34

Measured log10(Ki) of C#CC1=CC[C@@H](N(CCC)CCCCNC(=O)c2ccc(-c3ccccc3)cc2)CC1 : 2.20

Measured log10(Ki) of C#CC1=CC[C@@H](N(CCC)CCCCNC(=O)c2ccc(OCCCc3cn(CCCC)nn3)c(OC)c2)CO1 : 2.11

----------
# test.target: D(2) dopamine receptor (Homo sapiens, UniProt P14416)
# method.notes: Intrinsic activity at human dopamine D2L receptor expressed in HEK293 cells co-transfected with Galpha0i assessed as [35S]GTPgammaS binding after 30 mins by [35S]GTPgammaS incorporation assay relative to quinpirole
# Assay type: functional, cell-based
# Emax per record follows
Give the quantity in %, number only.

C#CC1=CC[C@@H](N(CCC)CCCCNC(=O)c2ccc(OCCCc3cn(CCCC)nn3)c(OC)c2)CO1    99
CCCCn1cc(CCCOc2ccc(C(=O)NCCCCN(CCC)[C@H]3CCc4c(O)cccc4C3)cc2OC)nn1    90

Measured Emax of CCCCn1cc(CCCOc2ccc(C(=O)NCCCCN(CCC)CCc3ccc(O)c4[nH]c(=O)ccc34)cc2OC)nn1 : 82

Measured Emax of C#CC1=CC[C@@H](N(CCC)CCCCNC(=O)c2ccc(-c3ccccc3)cc2)CC1 : 92

Measured Emax of CCCCn1cc(CCCOc2ccc(C(=O)NCCCCN(CCC)[C@@H]3CCc4c(O)cccc4C3)cc2OC)nn1 : 36

Measured Emax of C#CC1=CC[C@H](N(CCC)CCCCNC(=O)c2ccc(OCCCc3cn(CCCC)nn3)c(OC)c2)CO1 : 88

----------
# test.target: UniProtKB P35462
# Sequence (P35462 whole entry): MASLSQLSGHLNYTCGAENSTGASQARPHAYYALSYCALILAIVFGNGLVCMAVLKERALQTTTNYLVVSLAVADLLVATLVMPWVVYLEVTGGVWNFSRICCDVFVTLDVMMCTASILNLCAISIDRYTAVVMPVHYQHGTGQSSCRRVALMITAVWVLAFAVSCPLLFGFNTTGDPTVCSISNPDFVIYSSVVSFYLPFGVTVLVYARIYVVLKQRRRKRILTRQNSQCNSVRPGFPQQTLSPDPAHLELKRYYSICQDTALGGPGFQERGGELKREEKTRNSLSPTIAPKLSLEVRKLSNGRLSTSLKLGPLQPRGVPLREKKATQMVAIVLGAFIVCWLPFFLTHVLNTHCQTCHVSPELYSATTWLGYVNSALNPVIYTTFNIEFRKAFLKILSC
# method.notes: Displacement of [3H]spiperone from human dopamine D3 receptor transfected in CHO cells after 1 hr by scintillation counting analysis
readout.name: Ki (nM)
Give the quantity in nM, number only.

The following compounds have reported results that may help.
C#CC1=CC[C@@H](N(CCC)CCCCNC(=O)c2ccc(OCCCc3cn(CCCC)nn3)c(OC)c2)CO1    0.63
CCCCn1cc(CCCOc2ccc(C(=O)NCCCCN(CCC)[C@H]3CCc4c(O)cccc4C3)cc2OC)nn1    0.21

Measured Ki of CCCCn1cc(CCCOc2ccc(C(=O)NCCCCN(CCC)CCc3ccc(O)c4[nH]c(=O)ccc34)cc2OC)nn1 : 1.6

Measured Ki of C#CC1=CC[C@H](N(CCC)CCCCNC(=O)c2ccc(OCCCc3cn(CCCC)nn3)c(OC)c2)CO1 : 2.2

Measured Ki of CCCCn1cc(CCCOc2ccc(C(=O)NCCCCN(CCC)[C@@H]3CCc4c(O)cccc4C3)cc2OC)nn1 : 1.2

----------
# test.target: D(2) dopamine receptor (Homo sapiens)
# method.notes: Displacement of [3H]spiperone from human dopamine D2L receptor transfected in CHO cells after 1 hr by scintillation counting analysis
# Assay type: cell-based
readout.name: Ki (nM)
Give the quantity in nM, number only.

The following molecules have reported results that may help.
C#CC1=CC[C@@H](N(CCC)CCCCNC(=O)c2ccc(OCCCc3cn(CCCC)nn3)c(OC)c2)CO1    1.6
CCCCn1cc(CCCOc2ccc(C(=O)NCCCCN(CCC)CCc3ccc(O)c4[nH]c(=O)ccc34)cc2OC)nn1    24
CCCCn1cc(CCCOc2ccc(C(=O)NCCCCN(CCC)[C@H]3CCc4c(O)cccc4C3)cc2OC)nn1    0.47
C#CC1=CC[C@H](N(CCC)CCCCNC(=O)c2ccc(OCCCc3cn(CCCC)nn3)c(OC)c2)CO1    4.9

Moving on to another molecule below.
Measured Ki of CCCCn1cc(CCCOc2ccc(C(=O)NCCCCN(CCC)[C@@H]3CCc4c(O)cccc4C3)cc2OC)nn1 : 18

----------
# test.target: D(2) dopamine receptor (Homo sapiens)
# method.notes: Intrinsic activity at human dopamine D2L receptor expressed in HEK293 cells co-transfected with Galpha0i assessed as [35S]GTPgammaS binding after 30 mins by [35S]GTPgammaS incorporation assay
# Assay type: functional, cell-based
# pEC50 per record follows
Please treat pEC50 as minus the base-10 logarithm of the molar concentration.

CCCCn1cc(CCCOc2ccc(C(=O)NCCCCN(CCC)CCc3ccc(O)c4[nH]c(=O)ccc34)cc2OC)nn1    5.42

Measured pEC50 of C#CC1=CC[C@H](N(CCC)CCCCNC(=O)c2ccc(OCCCc3cn(CCCC)nn3)c(OC)c2)CO1 : 7.05

Measured pEC50 of CCCCn1cc(CCCOc2ccc(C(=O)NCCCCN(CCC)[C@@H]3CCc4c(O)cccc4C3)cc2OC)nn1 : 6.28

Measured pEC50 of C#CC1=CC[C@@H](N(CCC)CCCCNC(=O)c2ccc(OCCCc3cn(CCCC)nn3)c(OC)c2)CO1 : 7.28

Measured pEC50 of CCCCn1cc(CCCOc2ccc(C(=O)NCCCCN(CCC)[C@H]3CCc4c(O)cccc4C3)cc2OC)nn1 : 8.51
